The entries below come with measured CC50 values attached.
system: SW48 human colorectal cancer cells (MSI-H cancer cells); assay: SW48 cell viability, CellTiter-Glo, 120 hours (Example B); conditions: Homo sapiens, SW48, 120 h, read-out: SW48 pCC50, SW48 cell viability, 120 hours incubation (converted); Table 2
measurement-kind: CC50 (µM)

molecule: CCOC1CC(C(=O)Nc2ccc(C(F)(F)F)cc2)C(C(=O)O)C(c2ccc(N(C)S(=O)(=O)c3ccc4c(c3)nc(C)n4C)cc2)C1 (centres unmarked) [Example 330]
measurement-kind: CC50
measured-result: 0.398
//
molecule: Cc1nc2cc(S(=O)(=O)N(C)c3ccc([C@H]4C[C@@H](OCC5CCC5)C[C@@H](C(=O)Nc5ccc(C(F)(F)F)cc5F)[C@@H]4C(=O)O)cc3)ccc2n1C (stereo in doubt) [Example 154]
measurement-kind: CC50
measured-result: 0.398
//
molecule: CCC[C@H]1CC[C@H](NC(=O)[C@@H]2CCC[C@H](c3ccc(N(C)S(=O)(=O)c4ccc5c(c4)nc(C)n5C)cc3)[C@H]2C(=O)O)CC1 [Example 190]
measurement-kind: CC50
measured-result: 3.98
//
molecule: Cn1nccc1-c1ccc([C@H]2CCC[C@@H](C(=O)Nc3ccc(C(F)(F)F)cc3F)[C@@H]2C(=O)O)cc1 [Example 3]
measurement-kind: CC50
measured-result: 10
//
molecule: Cc1nc2cc(S(=O)(=O)N(C)c3ccc([C@@H]4C[C@@]5(CCCO5)C[C@H](C(=O)Nc5ccc(C(F)(F)F)cc5F)[C@H]4C(=O)O)cc3)ccc2n1C (stereo in doubt) [Example 387]
measurement-kind: CC50
measured-result: 10

---

The entries below come with measured fraction unbound at 4 h, 1 µM values attached.
assay: Cell culture media unbound percentage and stability by rapid equilibrium dialysis (Example C); type: in vitro ADME; settings: bovine, cell assay medium (RPMI-1640 with 10% fetal bovine serum), pH 7.4, rapid equilibrium dialysis, 4 hours at 37° C., read-out: Cell Culture Media Binding (% unbound)

compound: Cc1nc2cc(S(=O)(=O)N(C)c3ccc([C@H]4CCC[C@@H](C(=O)Nc5ccc(C(F)(F)F)cc5F)[C@@H]4C(=O)O)cc3)ccc2n1C (single isomer, unassigned) [Example 83]
fraction unbound at 4 h, 1 µM: 0.065
//
compound: CC(C)c1nc2cc(S(=O)(=O)N(C)c3ccc([C@H]4CCC[C@@H](C(=O)Nc5ccc(C(F)(F)F)cc5F)[C@@H]4C(=O)O)cc3)ccc2n1C [Example 132]
fraction unbound at 4 h, 1 µM: 0.0349
//
compound: Cc1nc2cc(S(=O)(=O)N(C)c3ccc([C@H]4CCC[C@@H](C(=O)Nc5ccc(C(F)(F)F)cc5F)[C@@H]4C(=O)O)cc3)c(F)cc2n1C [Example 127]
fraction unbound at 4 h, 1 µM: 0.0443
//
compound: Cc1nc2cc(S(=O)(=O)N(C)c3ccc([C@H]4C[C@@H](OCC5CCC5)C[C@@H](C(=O)Nc5ccc(C(F)(F)F)cc5F)[C@@H]4C(=O)O)cc3)ccc2n1C (stereo in doubt) [Example 154]
fraction unbound at 4 h, 1 µM: 0.0127
//
compound: CCO[C@@H]1C[C@H](c2ccc(NS(=O)(=O)c3ccc4c(c3)nc(C)n4C)cc2)[C@@H](C(=O)O)[C@H](C(=O)Nc2ccc(C(F)(F)F)cc2F)C1 [Example 288]
fraction unbound at 4 h, 1 µM: 0.0214

---

assay: Cell culture media unbound percentage and stability by rapid equilibrium dialysis (Example C); type: in vitro ADME; conditions: bovine, cell assay medium (RPMI-1640 with 10% fetal bovine serum), pH 7.4, rapid equilibrium dialysis, 4 hours at 37° C., read-out: Cell Culture Media Binding (% unbound)
Where a name gives a salt, the structure may show the parent alone.
The entries below come with measured fraction unbound at 4 h, 1 µM values attached.

molecule: Cc1nc2cc(S(=O)(=O)N(C)c3ccc([C@H]4C[C@H](N5CC[C@H](F)C5)C[C@@H](C(=O)Nc5ccc(C(F)(F)F)cc5F)[C@@H]4C(=O)O)cc3)ccc2n1C (stereo in doubt)
fraction unbound at 4 h, 1 µM: 0.0334
--
molecule: CCO[C@@H]1C[C@H](c2ccc(N(C)S(=O)(=O)c3ccc4c(c3)nc(Cl)n4C)cc2)[C@@H](C(=O)O)[C@H](C(=O)Nc2ccc(C(F)(F)F)cc2F)C1 (relative stereo)
fraction unbound at 4 h, 1 µM: 0.0632
--
molecule: Cc1nc2cc(S(=O)(=O)N(C)c3ccc([C@H]4CC[C@@H](C)[C@@H](C(=O)Nc5ccc(C(F)(F)F)cc5F)[C@@H]4C(=O)O)cc3)ccc2n1C (relative stereo)
fraction unbound at 4 h, 1 µM: 0.0332
--
molecule: Cc1nc2cc(S(=O)(=O)N(C)c3ccc([C@@H]4C[C@H](N5CCC(F)(F)CC5)C[C@H](C(=O)Nc5ccc(C(F)(F)F)cc5F)[C@H]4C(=O)O)cc3)ccc2n1C (stereo in doubt)
fraction unbound at 4 h, 1 µM: 0.237
--
molecule: Cc1nc2cc(S(=O)(=O)N(C)c3ccc([C@H]4C[C@H](N5CC[C@@H](F)C5)C[C@@H](C(=O)Nc5ccc(C(F)(F)F)cc5F)[C@@H]4C(=O)O)cc3)ccc2n1C (stereo in doubt)
fraction unbound at 4 h, 1 µM: 0.0589
--
molecule: CN[C@H]1C[C@H](c2ccc(N(C)S(=O)(=O)c3ccc4c(c3)nc(C)n4C)cc2)[C@@H](C(=O)O)[C@H](C(=O)Nc2ccc(C(F)(F)F)cc2F)C1 (single isomer, unassigned)
fraction unbound at 4 h, 1 µM: 0.234
--
molecule: Cc1nc2cc(S(=O)(=O)N(C)c3ccc([C@H]4CCC[C@@H](C(=O)Nc5ccc(C(F)(F)F)cc5F)[C@@H]4C(=O)O)cc3)cc(CCN)c2n1C [Example 289, hydrochloride]
fraction unbound at 4 h, 1 µM: 0.412
--
molecule: CN(c1ccc([C@H]2CCC[C@@H](C(=O)Nc3ccc(C(F)(F)F)cc3F)[C@@H]2C(=O)O)cc1)S(=O)(=O)c1ccc2c(c1)nc(CCN)n2C [Example 267, hydrochloride]
fraction unbound at 4 h, 1 µM: 0.226
--
molecule: CN(c1ccc([C@H]2CCC[C@@H](C(=O)Nc3ccc(C(F)(F)F)cc3F)[C@@H]2C(=O)O)cc1)S(=O)(=O)c1cccc(C(=O)N2CCOCC2)c1
fraction unbound at 4 h, 1 µM: 0.231
--
molecule: Cc1nc2cc(S(=O)(=O)N(C)c3ccc([C@H]4C[C@@H](OC5CCC5)C[C@@H](C(=O)Nc5ccc(C(F)(F)F)cc5F)[C@@H]4C(=O)O)cc3)ccc2n1C (stereo in doubt)
fraction unbound at 4 h, 1 µM: 0.0862
--
molecule: Cc1nc2cc(S(=O)(=O)N(C)c3ccc([C@H]4C[C@@H](OC[C@@H]5COCCO5)C[C@@H](C(=O)Nc5ccc(C(F)(F)F)cc5F)[C@@H]4C(=O)O)cc3)ccc2n1C (stereo in doubt)
fraction unbound at 4 h, 1 µM: 0.205
--
molecule: COc1cccc(S(=O)(=O)N(C)c2ccc([C@H]3CCC[C@@H](C(=O)Nc4ccc(C(F)(F)F)cc4F)[C@@H]3C(=O)O)cc2)c1 (racemic)
fraction unbound at 4 h, 1 µM: 0.0147
--
molecule: Cc1nc2cc(S(=O)(=O)N(C)c3ccc([C@H]4CCC[C@@H](C(=O)N[C@H]5CC[C@H](C(C)C)CC5)[C@@H]4C(=O)O)cc3)ccc2n1C
fraction unbound at 4 h, 1 µM: 0.0357
--
molecule: CCO[C@@H]1C[C@H](c2ccc(N(C)S(=O)(=O)c3ccc4c(c3)nc(C)n4C)cc2)[C@@H](C(=O)O)[C@H](C(=O)Nc2ccc(C(F)(F)F)cc2F)C1 (single isomer, unassigned)
fraction unbound at 4 h, 1 µM: 0.067
--
molecule: COCCO[C@@H]1C[C@H](c2ccc(N(C)S(=O)(=O)c3ccc4c(c3)nc(C)n4C)cc2)[C@@H](C(=O)O)[C@H](C(=O)Nc2ccc(C(F)(F)F)cc2F)C1 (stereo in doubt)
fraction unbound at 4 h, 1 µM: 0.19
--
molecule: Cc1nc2cc(S(=O)(=O)N(C)c3ccc([C@H]4CCC[C@@H](C(=O)Nc5ccc(C(F)(F)F)cc5F)[C@@H]4C(=O)O)cc3)ccc2n1CCN
fraction unbound at 4 h, 1 µM: 0.197
--
molecule: Cc1nc2cc(S(=O)(=O)N(C)c3ccc([C@H]4CC(F)(F)C[C@@H](C(=O)Nc5ccc(C(F)(F)F)cc5F)[C@@H]4C(=O)O)cc3)ccc2n1C (relative stereo)
fraction unbound at 4 h, 1 µM: 0.216
--
molecule: Cc1nc2cc(S(=O)(=O)N(C)c3ccc([C@H]4C[C@@H]5OCC[C@@H]5[C@@H](C(=O)Nc5ccc(C(F)(F)F)cc5F)[C@@H]4C(=O)O)cc3)ccc2n1C (single isomer, unassigned)
fraction unbound at 4 h, 1 µM: 0.242
--
molecule: CN(c1ccc([C@H]2CCC[C@@H](COc3ccc(C(F)(F)F)cc3)[C@@H]2C(=O)O)cc1)S(=O)(=O)c1ccc2c(c1)nc(CCN)n2C
fraction unbound at 4 h, 1 µM: 0.0082
